EXPERIMENT_SUMMARY: Plasma PK after single ocular administration in beagle dogs
Assay type: in vivo
TEST_CONTEXT: male, Ridglan beagle, topical or ocular, 100 ug; beagle dog plasma; single ocular 100 μg, left eye; median [min, max]; n = 3
Description: We used 7-week-old male Brown Norway rats (Central Lab. Animal Inc., Seoul, Republic of Korea) weighing 140–180 g. The rats were acclimated for a minimum of 7 days. […] A total of three rats were sampled 10 times at 0 (pre-dose), 0.08, 0.25, 0.5, 1, 2, 4, 8, 12 and 24 h post-dose. […] After centrifugation at 14,000 rpm for 5 min, 3 μL of sample was analyzed by LC-MS [24]. […] Finally, 3 μL of sample was analyzed by LC-MS [24]. […] Finally, 3 μL of sample was analyzed by LC-MS [24]. […]

{"columns": ["RECORD_SMILES", "Tmax / h"],
 "data": [
  ["OC[C@H]1O[C@@H](c2cc(Cc3ccc(C4CC4)cc3)c(Cl)c3c2CCO3)[C@H](O)[C@@H](O)[C@@H]1O", 1]
]}

// provenance: paper PMC10818312
